Below: a set of entries, each annotated with reported pKi.
# Study target: sigma-1 binding site (Cavia porcellus, UniProt Q60492)
# Construct: Guinea pig whole membrane preparations (P2 microsomal fraction); from tissue; host or cells: guinea pig membranes (P2 microsomal fraction), as described by Weber et al; brain inferred from the sister test b489
# Sequence (Q60492 whole entry): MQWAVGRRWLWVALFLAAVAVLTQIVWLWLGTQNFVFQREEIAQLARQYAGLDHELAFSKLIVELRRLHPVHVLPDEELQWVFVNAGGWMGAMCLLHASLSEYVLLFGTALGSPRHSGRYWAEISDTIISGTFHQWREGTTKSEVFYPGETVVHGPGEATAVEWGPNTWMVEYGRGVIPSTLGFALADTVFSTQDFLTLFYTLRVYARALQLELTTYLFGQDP
# Test method notes: biochemical
# Set-up: species or system guinea pig
# Test context: Table 10; read-out: SIGMA-1 KI vs. 3H-PENTAZOCINE MEAN
Formally, pKi is defined as -log10 of the concentration c, with c in mol/L.

IN: Fill in the blank: the reported pKi of Clc1cccc(N2CCN(CCc3ccccc3)CC2)c1 [Compound 32] is ____.
OUT: 7.83

IN: Fill in the blank: the reported pKi of c1ccc(CCCNCCc2ccccc2)cc1 [Compound 87, N-(3-phenylpropyl)phenethylamine] is ____.
OUT: 7.95

IN: Fill in the blank: the reported pKi of c1ccc(CCCCN2CCN(Cc3ccccc3)CC2)cc1 [Compound 79, N-(4-phenylbutyl)-N'-benzylpiperazine] is ____.
OUT: 9.77

IN: Fill in the blank: the reported pKi of CC(Cc1ccccc1)NCCCCc1ccccc1 (racemic) [Compound 10] is ____.
OUT: 8.33

IN: Fill in the blank: the reported pKi of CC(Cc1cccc(C(F)(F)F)c1)NCCCc1ccccc1 (racemic) [Compound 23] is ____.
OUT: 8.06

====

# Study target: 5-HT1A receptor (Rattus norvegicus)
# Sequence (P19327 whole entry): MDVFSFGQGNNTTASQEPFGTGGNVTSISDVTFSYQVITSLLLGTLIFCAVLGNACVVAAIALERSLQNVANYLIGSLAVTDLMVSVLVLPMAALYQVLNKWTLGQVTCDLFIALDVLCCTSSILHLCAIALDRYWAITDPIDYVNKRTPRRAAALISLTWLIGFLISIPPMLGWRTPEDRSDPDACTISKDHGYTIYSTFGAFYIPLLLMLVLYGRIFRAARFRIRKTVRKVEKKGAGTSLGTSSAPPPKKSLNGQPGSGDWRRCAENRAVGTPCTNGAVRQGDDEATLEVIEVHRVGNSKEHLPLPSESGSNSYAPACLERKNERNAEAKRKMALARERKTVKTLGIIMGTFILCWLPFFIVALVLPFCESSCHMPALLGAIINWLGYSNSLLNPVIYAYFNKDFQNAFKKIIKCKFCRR
# Test method notes: biochemical
# Format: binding
# Parameters: 47: 529-540 (1986); from tissue; host or cells: brain tissue, inferred from the cited method (rat frontal cortex)
# Test context: Table 5; read-out: 5-HT1A IC50
Below: a set of entries, each annotated with reported pIC50.
Formally, pIC50 is defined as -log10 of the concentration c, with c in mol/L.

Some solved entries appear below for comparison.
{"Molecule": "c1ccc(CCCNCCCc2ccccc2)cc1", "Study target": "5-HT1A receptor (Rattus norvegicus)", "Recorded value": 7.51}
{"Molecule": "C[C@H](Cc1ccccc1)NCCOc1ccccc1", "Study target": "5-HT1A receptor (Rattus norvegicus)", "Recorded value": 7.36}
{"Molecule": "C[C@@H](Cc1ccccc1)NCCc1ccccc1", "Study target": "5-HT1A receptor (Rattus norvegicus)", "Recorded value": 5.19}

Now, please, on to the next molecule.
IN: Form field - read-out: pIC50; system: 5-HT1A receptor (Rattus norvegicus); submitted item: c1ccc(CN2CCOC(c3ccccc3)C2)cc1 (stereo not shown)
OUT: 4.98

====

# Study target: UniProtKB P19327
# Test method notes: biochemical
# Format: binding
# Design: 47: 529-540 (1986); from tissue; host or cells: brain tissue, inferred from the cited method (rat frontal cortex)
# Test context: Table 5
Below: a set of entries, each annotated with reported Ratio 5-HT1A /σ.
# respond with the number and nothing more

Some solved entries appear below for comparison.
{"Compound": "c1ccc(CCCCN2CCN(c3ccccc3)CC2)cc1 [Compound 48]", "Study target": "UniProtKB P19327", "Ratio 5-HT1A /σ": 2.3}
{"Compound": "c1ccc(CCCNCCCc2ccccc2)cc1 [Compound 15, Di-(3-phenylpropyl)-amine]", "Study target": "UniProtKB P19327", "Ratio 5-HT1A /σ": 2}
{"Compound": "FC(F)(F)c1cccc(N2CCN(CCCCc3ccccc3)CC2)c1 [Compound 47]", "Study target": "UniProtKB P19327", "Ratio 5-HT1A /σ": 1.6}
{"Compound": "C[C@@H](N)Cc1ccc(I)cc1 [Compound 29]", "Study target": "UniProtKB P19327", "Ratio 5-HT1A /σ": 3.1}
{"Compound": "C[C@@H](Cc1ccccc1)NCCCc1ccc2ccccc2c1 [Compound 42]", "Study target": "UniProtKB P19327", "Ratio 5-HT1A /σ": 110}

IN: Fill in the blank: the reported Ratio 5-HT1A /σ of c1ccc(CCCN2CCN(c3ccc4ccccc4c3)CC2)cc1 [Compound 50] is ____.
OUT: 94

IN: Fill in the blank: the reported Ratio 5-HT1A /σ of c1ccc(CCCN2CCN(c3ccccc3)CC2)cc1 [Compound 46] is ____.
OUT: 3
